- assay system: Oxysterols receptor LXR-beta (Homo sapiens, UniProt P55055)
- method: Transactivational antagonist activity at human LXRbeta transfected in HEK293 cells expressing CMX-Gal4N assessed as inhibition of T1317-induced luciferase activity after 16 hrs by reporter gene assay
experimental readout: IC50 (µM)

a: C=C1c2ccc(-c3cccc(CC(=O)O)c3)cc2C(=O)N(C)c2ccc(CC)cc21
b: C=C1c2ccc(-c3ccc(CC(=O)O)cc3)cc2C(=O)N(C)c2ccc(CC)cc21
Kindly identify which of a and b has the larger recorded IC50 value. Returns: label corresponding to the selected item. a
(a: 27 µM, b: 15 µM)

====

- method: Apparent permeability from apical to basal side of human Caco2 cells at 10 uM
- Type: ADME, cell-based
- reported conditions: Caco-2
experimental readout: Papp A→B at 10 µM

Quick check: Papp A→B at 10 µM of C=C1c2ccccc2C(=O)N(C)c2ccc(O)cc21 ? ≥ 20 ×10⁻⁶ cm/s

====

- assay system: Oxysterols receptor LXR-alpha (Homo sapiens)
- method: Transactivational agonist activity at human LXRalpha transfected in HEK293 cells expressing CMX-Gal4N assessed as luciferase activity after 16 hrs by reporter gene assay relative to N-(4-(1,1,1,3,3,3-hexafluoro-2-hydroxypropan-2-yl)phenyl)-N-methylbenzamide
- Type: cell-based
- reported conditions: read-out: Efficacy
experimental readout: Emax (%)

a: CN(C(=O)c1ccccc1)c1ccc(C(O)(C(F)(F)F)C(F)(F)F)cc1
b: CN1C(=O)c2ccccc2Oc2cc(C(O)(C(F)(F)F)C(F)(F)F)ccc21
Of a and b , which shows the smaller Emax value? Identify your pick by its label. b

====

- method: Metabolic stability in human liver microsomes assessed as compound remaining at 0.1 uM by LC-MS/MS analysis
- Type: ADME, Microsome
- reported conditions: read-out: Stability
experimental readout: remaining at 0.1 µM (%)
Number only, in %; omit the unit.

Value lookup for remaining at 0.1 µM; key = C=C1c2ccccc2C(=O)N(C)c2ccc(O)cc21 87.8

====

- assay system: Oxysterols receptor LXR-alpha (Homo sapiens, UniProt Q13133)
- method: Transactivational agonist activity at human LXRalpha transfected in HEK293 cells expressing CMX-Gal4N assessed as luciferase activity after 16 hrs by reporter gene assay
pEC50: −log10 of the molar value.
experimental readout: pEC50

smiles record | experimental readout | observed value
CN1C(=O)c2ccccc2Oc2cc(C(O)(C(F)(F)F)C(F)(F)F)ccc21 | pEC50 | 5.38

1: CN(C(=O)c1ccccc1)c1ccc(C(O)(C(F)(F)F)C(F)(F)F)cc1
2: C=C1c2ccccc2C(=O)N(C)c2ccc(C(O)(C(F)(F)F)C(F)(F)F)cc21
Which shows the larger pEC50 value: 1 or 2 ? Respond with the label that goes with your answer. 1

====

- assay system: Oxysterols receptor LXR-beta (Homo sapiens, UniProt P55055)
- method: Transactivational antagonist activity at human LXRbeta transfected in HEK293 cells expressing CMX-Gal4N assessed as inhibition of T1317-induced luciferase activity after 16 hrs by reporter gene assay
experimental readout: IC50 (µM)

Worked examples, 3 molecules total:
smiles record | assay system | IC50 [µM]
C=C1c2ccc(-c3ccc(C(=O)O)cc3)cc2C(=O)N(C)c2ccc(CC)cc21 | Oxysterols receptor LXR-beta (Homo sapiens, UniProt P55055) | 9.5
[CH2-]c1c2ccccc2c(=O)[n+](C)c2ccc([N+](=O)[O-])cc12 | Oxysterols receptor LXR-beta (Homo sapiens, UniProt P55055) | 13
C=C1c2ccccc2C(=O)N(C)c2ccc(C(=O)O)cc21 | Oxysterols receptor LXR-beta (Homo sapiens, UniProt P55055) | 26

1: C=C1c2ccccc2C(=O)N(C)c2ccc(N)cc21
2: C=C1c2ccccc2C(=O)N(C)c2ccc(C(C)=O)cc21
Just tell me: smaller IC50 value, 1 or 2 ? Refer to your chosen entry by its label in the reply. 2
(2: 7.5 µM, 1: 27 µM)

====

- assay system: Liver X receptor (Homo sapiens, UniProt Q13133+P55055)
- Sequence (Q13133 whole entry): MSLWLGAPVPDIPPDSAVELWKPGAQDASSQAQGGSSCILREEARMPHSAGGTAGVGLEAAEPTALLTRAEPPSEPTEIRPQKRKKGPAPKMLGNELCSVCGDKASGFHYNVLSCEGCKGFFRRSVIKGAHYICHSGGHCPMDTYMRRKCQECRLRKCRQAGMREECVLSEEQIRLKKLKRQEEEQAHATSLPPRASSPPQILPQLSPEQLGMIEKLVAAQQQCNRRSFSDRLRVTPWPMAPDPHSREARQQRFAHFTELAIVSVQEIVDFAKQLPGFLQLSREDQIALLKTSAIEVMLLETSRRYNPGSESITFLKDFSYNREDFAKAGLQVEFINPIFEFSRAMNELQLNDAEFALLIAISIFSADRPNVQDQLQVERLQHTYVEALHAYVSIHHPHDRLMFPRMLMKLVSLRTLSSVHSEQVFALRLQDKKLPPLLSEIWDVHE
- Sequence (P55055 whole entry): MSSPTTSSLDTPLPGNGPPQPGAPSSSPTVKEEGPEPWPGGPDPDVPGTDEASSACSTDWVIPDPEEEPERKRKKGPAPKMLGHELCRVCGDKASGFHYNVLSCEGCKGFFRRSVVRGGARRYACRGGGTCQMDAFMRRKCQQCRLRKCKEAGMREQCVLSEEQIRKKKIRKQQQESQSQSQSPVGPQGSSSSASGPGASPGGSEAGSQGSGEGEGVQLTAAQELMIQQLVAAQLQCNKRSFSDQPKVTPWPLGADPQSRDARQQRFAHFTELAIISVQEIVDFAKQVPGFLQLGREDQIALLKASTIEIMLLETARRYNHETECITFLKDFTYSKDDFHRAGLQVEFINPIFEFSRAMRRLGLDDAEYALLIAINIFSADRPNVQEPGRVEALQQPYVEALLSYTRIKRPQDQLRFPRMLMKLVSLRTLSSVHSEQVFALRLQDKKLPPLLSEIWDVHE
- method: Transrepressional activity at LXR in human TPA-activated THP1 cells assessed as inhibition of LPS-induced IL6 production incubated for 6 hrs prior to LPS-challenge measured after 18 hrs by ELISA
- reported conditions: thp-1
experimental readout: IC50 (µM)
Express your answer in µM, writing the number without its unit.

Any idea what its IC50 is? The molecule is C=C1c2ccccc2C(=O)N(C)c2ccc(C(O)(C(F)(F)F)C(F)(F)F)cc21 5.8

====

- method: Permeability from apical to basal side of human Caco2 cells at 10 uM
- Format: ADME, cell-based
- reported conditions: Caco-2, read-out: permeability
experimental readout: Papp A→B at 10 µM (×10⁻⁶ cm/s)
Report the value in ×10⁻⁶ cm/s with no unit label.

Fill blank: measured Papp A→B at 10 µM of the compound C=C1c2ccccc2C(=O)N(C)c2ccc(O)cc21 is ____. 84.3

====

- assay system: UniProt:P55055
- method: Transactivational agonist activity at human LXRbeta transfected in HEK293 cells expressing CMX-Gal4N assessed as luciferase activity after 16 hrs by reporter gene assay relative to N-(4-(1,1,1,3,3,3-hexafluoro-2-hydroxypropan-2-yl)phenyl)-N-methylbenzamide
- Type: cell-based
- reported conditions: read-out: Efficacy
experimental readout: Emax (%)

molecule | experimental readout | display unit | observed value
C=C1c2ccccc2C(=O)N(C)c2ccc(C(O)(C(F)(F)F)C(F)(F)F)cc21 | Emax | % | 73
O=S(=O)(c1ccccc1)N(CC(F)(F)F)c1ccc(C(O)(C(F)(F)F)C(F)(F)F)cc1 [T091317] | Emax | % | 118
CN1C(=O)c2ccccc2CCc2cc(C(O)(C(F)(F)F)C(F)(F)F)ccc21 | Emax | % | 108

A: CN(C(=O)c1ccccc1)c1ccc(C(O)(C(F)(F)F)C(F)(F)F)cc1
B: CN1C(=O)c2ccccc2Oc2cc(C(O)(C(F)(F)F)C(F)(F)F)ccc21
Emax comparison. Which is larger, A or B ? Pick one and reply with its label. A
(A: 100%, B: 49%)

====

- assay system: Oxysterols receptor LXR-alpha (Homo sapiens)
- method: Transactivational antagonist activity at human LXRalpha transfected in HEK293 cells expressing CMX-Gal4N assessed as inhibition of T1317-induced luciferase activity after 16 hrs by reporter gene assay
experimental readout: IC50 (µM)

smiles record | assay system | experimental readout | display unit | observed value
C=C1c2ccccc2C(=O)N(C)c2ccc(C(C)=O)cc21 | Oxysterols receptor LXR-alpha (Homo sapiens) | IC50 | µM | 4.9
C=C1c2ccccc2C(=O)N(C)c2ccc(C(=O)O)cc21 | Oxysterols receptor LXR-alpha (Homo sapiens) | IC50 | µM | 14
C=C1c2ccc(-c3cccc(CC(=O)O)c3)cc2C(=O)N(C)c2ccc(CC)cc21 | Oxysterols receptor LXR-alpha (Homo sapiens) | IC50 | µM | 21
C=C1c2ccccc2C(=O)N(C)c2ccc(C(C)C)cc21 | Oxysterols receptor LXR-alpha (Homo sapiens) | IC50 | µM | 1.7
C=C1c2ccccc2C(=O)N(C)c2ccc(C(C)(C)C)cc21 | Oxysterols receptor LXR-alpha (Homo sapiens) | IC50 | µM | 5.4

P: [CH2-]c1c2ccccc2c(=O)[n+](C)c2ccc([N+](=O)[O-])cc12
Q: C=C1c2ccc(-c3ccc(C(=O)O)cc3)cc2C(=O)N(C)c2ccc(CC)cc21
R: C=C1c2ccccc2C(=O)N(C)c2ccc(N)cc21
S: Cn1c(=O)c2ccccc2c2cc(C(O)(C(F)(F)F)C(F)(F)F)ccc21
T: C=C1c2ccc(-c3ccc(CC(=O)O)cc3)cc2C(=O)N(C)c2ccc(CC)cc21
Order the 5 molecules from highest to lowest IC50. Provide the labels, sequenced as the question asks. R, P, S, T, Q
(R: 19 µM, P: 6.1 µM, S: 4.1 µM, T: 2.2 µM, Q: 1.3 µM)
